- Test system: senescent cells
- test_name: Viability of senescent cells (CellTiter-Glo), Example 17, Table 13
- condition_info: 10 μM; doxorubicin-induced senescent cells; 0 μM = 100
result_type: Survival (%)
Give just the number in %; leave the unit off.

{"compound": "CCCCCCCCCCCCCCCCCCCC(=O)N[C@H]1CC[C@@]2(C)[C@@H](C1)C[C@@H](O)[C@@H]1[C@@H]2C[C@H](O)[C@]2(C)[C@@H]([C@H](C)CCC(=O)O)CC[C@@H]12 [LX-9343, Icomidocholic acid]", "result_type": "Survival (%)", "recorded_value": 74.2}
{"compound": "COC[C@]1(CO)C(=O)[C@H]2CC[N@]1[C@H](C)C2 [LX-5731]", "result_type": "Survival (%)", "recorded_value": 48.2}

Consider the compound shown here: CN(CC(=O)Nc1nc2ccc(OC(F)(F)F)cc2s1)C(=O)CNC(=O)CN [LX-6216, Troriluzole] What is its recorded Survival (%)?
68.8

Consider the compound shown here: CCNCc1nc2c(O)c(Cl)cc(Cl)c2c(=O)n1C [LX-9421] What is its recorded Survival (%)?
67.9

Consider the compound shown here: CCCCCC/C=C\CCCCCCCCCC(=O)N[C@H]1[C@H](OC[C@H]2O[C@H](OP(=O)([O-])[O-])[C@H](NC(=O)CC(=O)CCCCCCCCCCC)[C@@H](OCCCCCCCCCC)[C@@H]2O)O[C@H](COC)[C@@H](OP(=O)([O-])[O-])[C@@H]1OCC[C@@H](CCCCCCC)OC.[Na+].[Na+].[Na+].[Na+] [LX-9136, Eritoran tetrasodium] What is its recorded Survival (%)?
71.1

Consider the compound shown here: CC(=O)[O-].CC(=O)[O-].CCc1c(CC)c2cc3nc(cnc4cc(OCCOCCOCCOC)c(OCCOCCOCCOC)cc4ncc4nc(cc1[n-]2)C(CCCO)=C4C)C(C)=C3CCCO.O.[Gd+3] [LX-5211, Motexafin Gadolinium] What is its recorded Survival (%)?
92.7

Consider the compound shown here: CN1CCc2c(c3ccccc3n2Cc2ccc(C(=O)NO)cc2)C1 [LX-5352, Tubastatin A] What is its recorded Survival (%)?
32.4

Consider the compound shown here: CN(CCOc1ccc(CC2SC(=O)NC2=O)cc1)c1ccccn1 (stereo not shown) [LX-9423, Rosiglitazone] What is its recorded Survival (%)?
25.4

Consider the compound shown here: Nc1cc(COc2c(Cl)cc(C[C@H](N)C(=O)O)cc2Cl)c2oc(-c3ccccc3)nc2c1 [LX-6233, Nanvuranlat] What is its recorded Survival (%)?
32.7

Consider the compound shown here: CCO[C@@H](Cc1ccc(OCCn2c(C)ccc2-c2ccc(SC)cc2)cc1)C(=O)[O-].CCO[C@@H](Cc1ccc(OCCn2c(C)ccc2-c2ccc(SC)cc2)cc1)C(=O)[O-].[Mg+2] [LX-9717, Saroglitazar Magnesium] What is its recorded Survival (%)?
73.5
